assay: TOR pathway GLN3 branch reporter MEP2-GFP changes – S. cerevisiae, multiplex flow cytometry, MLPCN library, primary screen (AID 2016);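 further: median GFP fluorescence of the barcode-gated MEP2-GFP cells per well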; conditions: S. cerevisiae MEP2-GFP strain, 3 h, at 10 µM, 100% = DMSO control level
In all, about 330,000 compounds went through this assay and about 1,700 (0.52%) were called active.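 How the source made its calls: active means GFP response versus DMSO above a set limit, roughly screen mean plus 3 SD (cut at about 180% in these data); inconclusive means fewer than 70 cells counted for a yeast strain; inactive means the rest.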 What follows is part of a selection rich in actives, with near analogues and random picks from the rest.
Form entry, call: pick from TRUE for active, FALSE for inactive

Q. Which outcome was assigned to COc1ccc(C(=O)NC2CC2)cc1OC1CCN(Cc2ccc(SC)cc2)CC1 in this test?
A. FALSE

Q. Hello, I am checking results. What call was entered for O=C(COc1ccc(-n2cnnn2)cc1)Nc1ccccc1Cl ?
A. TRUE

Q. Kindly provide the recorded test outcome for the following compound: O=C(COc1ccc(Cl)cc1)Nc1ccccc1CO
A. FALSE

Q. For Cc1cc(C=O)c(C)n1-c1ccc(NC2CCCCC2)c([N+](=O)[O-])c1 , what call appears in the results of this test?
A. FALSE

Q. In this assay, the call recorded for CCCCc1c(O)nc2n(c1=O)CCS2 was what?
A. FALSE

Q. Answer briefly: the call reported for CCOC(=O)N1CCN(S(=O)(=O)c2ccc(Br)cc2)CC1 in this assay.
A. TRUE

Q. # lookup: test call for CC(C)(C)C1CCC(C(=O)NCC(c2cccs2)N2CCOCC2)CC1 (stereo not given)
A. FALSE

Q. For CN(C)C(=O)c1cccn(Cc2cccc(C(F)(F)F)c2)c1=O , which call appears in the assay record?
A. FALSE

Q. // param item: COc1ccccc1OCCCC(=O)Nc1ccc2c(c1)OCCO2 ; yields the recorded call
A. FALSE

Q. What did the test return for CCS(=O)(=O)Nc1ccc(C2=NN(C(C)=O)C(c3cccs3)C2)cc1 (stereo not given) ?
A. FALSE

Q. Could you check what this test reported for COc1ccc(C(=O)N(Cc2ccccc2)c2ccc(C)cc2)cc1S(=O)(=O)N1CCOCC1 ?
A. FALSE

Q. How was NC(=O)COC(=O)c1ccc2c(c1)C(=O)N(Cc1ccco1)C2=O classified in this test?
A. FALSE

Q. What was the test verdict on Cc1cccc(Nc2nc3c(S(=O)(=O)c4ccccc4)nnn3c3ccccc23)c1C ?
A. TRUE

Q. What did the test return for C=CCc1cccc(/C=N/NC(=O)COc2ccc(-n3cnnn3)cc2)c1O ?
A. FALSE

Q. So what was the verdict on CC(=O)Nc1ccc(Nc2nc3c(S(=O)(=O)c4ccc(C)c(C)c4)nnn3c3ccccc23)cc1 in this test?
A. FALSE

###

test: TOR pathway GLN3 branch reporter MEP2-GFP changes – S. cerevisiae, multiplex flow cytometry, MLPCN library, primary screen (AID 2016);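 further: median GFP fluorescence of the barcode-gated MEP2-GFP cells per well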; details: S. cerevisiae MEP2-GFP strain, 3 h, at 10 µM, 100% = DMSO control level
The campaign covered roughly 330,000 compounds. About 1,700 (0.52%) were called active.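 How the source made its calls: active means GFP response versus DMSO above a set limit, roughly screen mean plus 3 SD (cut at about 180% in these data); inconclusive means fewer than 70 cells counted for a yeast strain; inactive means the rest.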 The full list was thinned out, with actives kept by preference.
Returns: one label drawn from yes for active, no for inactive

Q. Returns: the outcome recorded for O=C(Nc1ccc(S(=O)(=O)NCC2CCCO2)cc1)c1ccc(F)cc1 (stereo not given) in this assay.
A. no

Q. # outcome recorded in this test, key = Cc1cccc2sc(N(CCCN(C)C)C(=O)CCS(=O)(=O)c3ccccc3)nc12
A. no

Q. Record request — test call for Cc1ccc2sc(N(CCN(C)C)C(=O)/C=C/c3cccs3)nc2c1C
A. yes

Q. Query: recorded result category for Cc1cc(C)c2nc(N(CCN(C)C)C(=O)/C=C/c3cccs3)sc2c1 in this test
A. no

Q. Fill in: this test's call for O=[N+]([O-])c1cccc(/C=N/Nc2ncc(Br)cn2)c1 is ___
A. yes
